studySystem: Btk SH2 domain K374N (XLA mutation) (human, UniProt Q06187 271-383, K374N)
Sequence (Q06187 271-383 K374N): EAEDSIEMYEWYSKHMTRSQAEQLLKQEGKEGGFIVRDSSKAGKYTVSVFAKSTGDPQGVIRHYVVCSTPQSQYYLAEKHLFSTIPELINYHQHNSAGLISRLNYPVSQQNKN
procedureText: FP
pKd: −log10 of the molar value. Square brackets hold non-standard residues; d marks the D form. Ends that are not written are not given here. pY = N[C@@H](Cc1ccc(OP(=O)(O)O)cc1)C(=O)O
endpointLabel: pKd

ADND[pY]IIPLPD (also: FITC label, end not given here) [FITC-labeled pY-peptide (ADNDpYIIPLPD)]    5.06

Reference for the values: paper PMC7210950
